Test system: T cells isolated from mouse spleens
Assay: T cell proliferation inhibition (CFSE flow cytometry, anti-CD3/anti-CD28 stimulation)
Format: cell-based
Conditions: Mus musculus, T-cell, 72 h, compound 30 μM, mouse spleen T cells, 3 days, read-out: Proliferation inhibition rate (%)
Provide the recorded inhibition at 30 µM for the entries that follow.
Returns: string containing the number followed by the unit.

Which inhibition at 30 µM reading was recorded for the compound "Cc1nn(CCCCCCCCCCCCNC(=O)c2cccnc2N)cc1Br" ?
100%

Which inhibition at 30 µM reading was recorded for the compound Nc1ncccc1C(=O)NCCCCCCCCF [Compound 61, 2-Amino-N-(8-fluoro-octyl)-nicotinamide] ?
85.4%

Which inhibition at 30 µM reading was recorded for the compound "Nc1ccncc1C(=O)NCCCCCCCCCCCCF" ?
100%

Which inhibition at 30 µM reading was recorded for the compound "CN1CCN(CCCCCCCCCCCCNC(=O)c2cccnc2Cl)CC1" ?
88.6%

Which inhibition at 30 µM reading was recorded for the compound "COc1cc2c(cc1OC)CN(CCCCCCCCCCCCNC(=O)c1cccnc1N)CC2" ?
100%

Which inhibition at 30 µM reading was recorded for the compound "Nc1ncccc1C(=O)NCCCCCCCCCCCCn1ccc2c(Cl)c(I)cnc21" ?
100%

====

Provide the recorded Proliferation inhibition rate (%) for the entries that follow.
System: T cells isolated from mouse spleens
Assay: T cell proliferation inhibition (CFSE flow cytometry, anti-CD3/anti-CD28 stimulation)
Type: cell-based
Conditions: compound 50 μM, mouse spleen T cells, 3 days
Response body: numeric value in %, unit text excluded.

Which Proliferation inhibition rate (%) reading was recorded for the compound Nc1ncccc1C(=O)NCCCCCCCCCCCCN1CC(F)(F)C1 [Compound 122] ?
100.00

Which Proliferation inhibition rate (%) reading was recorded for the compound CC1CN(CCCCCCCCCCCCNC(=O)c2cccnc2N)C(C)CN1.Cl (stereo not shown) [Compound 36] ?
100.00

Which Proliferation inhibition rate (%) reading was recorded for the compound CC(C)(C)OC(=O)N1CCN(CCCCCCCCCCCCNC(=O)c2cccnc2N)CC1 [Compound 111] ?
100.00

Which Proliferation inhibition rate (%) reading was recorded for the compound CC1CCN(CCCCCCCCCCCCNC(=O)c2cccnc2N)C1 (stereo not shown) [Compound 24] ?
100.00

Which Proliferation inhibition rate (%) reading was recorded for the compound Nc1ncccc1C(=O)NCCCCCCCCCCCCN1CCN(C=O)CC1 [Compound 97] ?
100.00

Which Proliferation inhibition rate (%) reading was recorded for the compound Nc1ncccc1C(=O)NCCCCCCCCCCCCN1CCOC1=O [Compound 127] ?
100.00

Which Proliferation inhibition rate (%) reading was recorded for the compound Cl.Nc1ncccc1C(=O)NCCCCCCCCCCCCF [Compound 69] ?
99.20

Which Proliferation inhibition rate (%) reading was recorded for the compound CC(C)(C)OC(=O)N[C@@H]1CCCN(CCCCCCCCCCCCNC(=O)c2cccnc2N)C1 [Compound 117] ?
100.00

Which Proliferation inhibition rate (%) reading was recorded for the compound C[C@H]1CNCCN1CCCCCCCCCCCCNC(=O)c1cccnc1N.Cl [Compound 37] ?
100.00

Which Proliferation inhibition rate (%) reading was recorded for the compound Cc1ccc(OC2CCN(CCCCCCCCCCCCNC(=O)c3cccnc3N)CC2)cc1 [Compound 51] ?
100.00

Which Proliferation inhibition rate (%) reading was recorded for the compound Nc1ncccc1C(=O)NCCCCCCCCCCCCN1CCC(Oc2ccncc2)CC1 [Compound 38] ?
100.00

Which Proliferation inhibition rate (%) reading was recorded for the compound CN(CCCCCCCCCCCCNC(=O)c1cccnc1N)C(C)(C)C [Compound 53] ?
100.00

Which Proliferation inhibition rate (%) reading was recorded for the compound Cl.O=C(NCCCCCCCCCCCCN1CCNCC1)c1ccc(-c2ccccc2)o1 [Compound 90] ?
100.00
